property.label: melting point

The following compounds have reported results that may help.
INSERT INTO results (compound, property_label, experimental_result) VALUES
  ('Cc1nnc(Cl)c(-c2c(F)cccc2Cl)c1-c1ccc(Cl)nc1', 'melting point', '166 to 167 °C'),
  ('COC(=O)C(Cc1ccc(OCCc2nc(-c3ccccc3)oc2C)cc1)C(=O)NC(N)=O (stereo unspecified)', 'melting point', '74.6 to 75.6 °C'),
  ('Cc1ccc(C(CCN2CCCC2)c2ncc[nH]2)cc1 (stereo unspecified)', 'melting point', '125 to 127 °C'),
  ('CC(C)(C)COC(=O)c1cc(Cl)c(F)c(Cl)c1F', 'melting point', '38 to 42 °C'),
  ('CS(=O)(=O)c1ccc(-c2cnn(C=C(F)C(F)(F)C(F)(F)F)c(=O)c2-c2ccc(F)cc2)cc1', 'melting point', '167 to 169 °C'),
  ('COc1cc2c(cc1OC)C(=CN1CCN(C(=O)c3ccco3)CC1)C(=O)N2', 'melting point', '158 to 160 °C');

Inquiry: May I ask what melting point has been recorded for "O=C(O)CCSCC(=O)c1cc2sc(=O)[nH]c2cc1Cl" ?
Reply text: 195 to 197 °C

Inquiry: May I ask what melting point has been recorded for "N=C(O)c1cc(C(O)=NCCO)c(C(=O)O)cc1C(=O)O" ?
Reply text: 279 to 280 °C
